Tested on: CPK1 (P.falciparum)
ASSAY DETAILS: KINOMEscan competition binding
STATED CONDITIONS: compound 10.0 µM
MEASURE NAME: kinase still bound, per cent of control (%)
Expressed in %, but write only the number.

Q) Record lookup: for CPK1 (P.falciparum), what kinase still bound, per cent of control belongs to O=C(NOC[C@H](O)CO)c1ccc(F)c(F)c1Nc1ccc(I)cc1F ?
A) 78

Q) Record lookup: for CPK1 (P.falciparum), what kinase still bound, per cent of control belongs to Cc1cc([C@@H](C)Nc2ccccc2C(=O)O)c2nc(N3CCOCC3)cc(=O)n2c1 ?
A) 62

Q) Record lookup: for CPK1 (P.falciparum), what kinase still bound, per cent of control belongs to O=C(O)c1ccc(Nc2ncc3c(n2)-c2ccc(Cl)cc2C(c2c(F)cccc2F)=NC3)cc1 ?
A) 63

Q) Record lookup: for CPK1 (P.falciparum), what kinase still bound, per cent of control belongs to C=CC(=O)Nc1cccc(Nc2nc(N[C@H]3CC[C@H](N(C)C)CC3)nc3c2ncn3C(C)C)c1 ?
A) 98

Q) Record lookup: for CPK1 (P.falciparum), what kinase still bound, per cent of control belongs to CCOc1cc2ncc(C#N)c(Nc3ccc(OCc4ccccn4)c(Cl)c3)c2cc1NC(=O)/C=C/CN(C)C ?
A) 88
